This section presents compounds with their documented % Inhibition values.
- Tested on: Staphylococcus epidermitis
- RUN_DESCRIPTION: Bacterial growth inhibition screen in LB media (absorbance 595 nm), percent inhibition
- CONDITION_DESCRIPTION: S. epidermitis; concentration screened 10 uM

GIVEN_SMILES: CN(C)c1ccc(CC(=O)OCCCCCCCn2ccc3cc([N+](=O)[O-])ccc32)cc1
% Inhibition: 98.90%

GIVEN_SMILES: c1ccc(Oc2ccc3[nH]c(CCCC[n+]4cccc5ccccc54)cc3c2)cc1
% Inhibition: 4.67%

GIVEN_SMILES: CN(C)c1ccc(C(=O)OCCCCCCCc2cc3cc(C(=O)c4ccccc4)ccc3[nH]2)cc1
% Inhibition: 1.09%

GIVEN_SMILES: CC(C)c1ccc2[nH]c(CCCCCCCOC(=O)C(c3ccccc3)c3ccccc3)cc2c1
% Inhibition: 3.88%
